Tested on: Colon cancer organoid
Protocol: Identification of compartment-specific drug sensitivities in O20 CRC organoid-stroma F20 CAF co-cultures. Organoid is transduced with Lucferase2-P2A-EGFP lentivirus, fibroblast with Renilla-dsRed lentivirus. Dual-Glo Luciferase assay is used to report viability data.
Assay type: functional, Homo sapiens
Parameters: dose or concentration left out as unconfirmed
Condition parameters: Transduced with Lucferase2-P2A-EGFP lentivirus
Property measured: Cell Viability (%)
Please respond with the number in % and leave the unit unwritten.

Compound structure string: Cc1c(Nc2ccc(S(=O)(=O)N3CCN(C)CC3)cc2F)nc2ccc(-c3cnn(C4CC4)c3)cn2c1=O
Tgt: Colon cancer organoid
Property measured: Cell Viability
Unit abbrev: %
Value observed: 100.446
//
Compound structure string: COc1ncc(F)cc1CNc1ccc(Cc2c[nH]c3ncc(C)cc23)c(F)n1
Tgt: Colon cancer organoid
Property measured: Cell Viability
Unit abbrev: %
Value observed: 206.903
//
Compound structure string: CC1=CC(C)=[N+]2C1=C(CCCCc1cn(CC(=O)N3CCc4nc(NC(=O)[C@H]5CCN(C#N)C5)sc4C3)nn1)c1c(C)cc(C)n1[B-]2(F)F
Tgt: Colon cancer organoid
Property measured: Cell Viability
Unit abbrev: %
Value observed: 77.3724

Fill: Cell Viability (Colon cancer organoid) for this compound "Cn1cc(CCn2cnc(-c3cnn(C)c3)c2-c2ccc(C#N)cc2)cn1"
163.337
